B1: Osa-1-4 twister ribozyme (parent)
chain: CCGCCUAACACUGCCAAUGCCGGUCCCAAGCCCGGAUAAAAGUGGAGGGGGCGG

Variants of: B1
protocol summary: self-cleavage, relative activity (ratio to wild type); higher = more cleavage; co-transcriptional
Lab note: class by self-cleavage, see lower (below 0.06), middle (0.06 to below 0.2), upper (0.2 or more)

A selection of reference data follows.
{"construct sequence": "CCGCCUAACACUGCCAAUGCCCGUCCCAAGCCUGGAUAAAAGUGGAGGGGGCGG [C33U G22C]", "label class": "upper"}
{"construct sequence": "CCGCCUAACACUGCCAAUGCCGGUCCCAAGCCGGUAUAAAAGUGGAGGGGGCGG [C33G G35U]", "label class": "lower"}
{"construct sequence": "CCGCCUAACACUGGCAAUGCCCGUCCCAAGCCCGGAUAAAAGUGGAGGGGGCGG [C14G G22C]", "label class": "middle"}
{"construct sequence": "CCGCCUAACACUGCCAAUGACGGUCCCAAGCCCGGUUAAAAGUGGAGGGGGCGG [A36U C20A]", "label class": "upper"}
{"construct sequence": "CCGCCUAACACUGCCAAUGCCGGUCCCAAGCCCGGAUAAAAAUGGAGGGGGGGG [C52G G42A]", "label class": "upper"}

Query :: Hi there! Could you help me figure out the category for CCGCCUAACACUGCCAAUGCCGGUCCCAAGCCCGGAUAUAAGAGGAGGGGGCGG [A39U U43A] please?
Result :: upper

Query :: Hi there! Could you help me figure out the category for CCGCCUAACACUGCCAAUGCCGGGCCCAAGCCCGGAUAAAAGUGGAGGGGGCUG [G53U U24G] please?
Result :: lower

Query :: Hi there! Could you help me figure out the category for CCGCCUGACACUGCCAAUGCCGGUCCCAAGCCCGGAGAAAAGUGGAGGGGGCGG [A7G U37G] please?
Result :: upper

Query :: Hi there! Could you help me figure out the category for CCGCCUGACACUGCCAAUGCCGGUCCCAAGCCCGGAUAAAAGUGGAAGGGGCGG [A7G G47A] please?
Result :: middle

Query :: Hi there! Could you help me figure out the category for CCGCCUAACACUGCCAAUGCCGGUCCCGAGCCCGGAUAAAAGCGGAGGGGGCGG [A28G U43C] please?
Result :: middle

Query :: Hi there! Could you help me figure out the category for CCGCCUAACACUGCCAAUUCCGGUCCCAAGCCCGGAUAAAAGAGGAGGGGGCGG [G19U U43A] please?
Result :: middle

FYI, the data here is from the RNAGym collection of RNA variant scans (doi:10.1002/anie.201605470).
